The reported measurements were obtained from PubChem BioAssay (Tox21).

# procedure.details: A CellTox Green Cytotoxicity Assay to monitor cytotoxicity in HepG2 cells - 8 hour (AID 1224890); note: nearly all actives have a fitted effect of over 45% in size
# condition.info: CellTox Green fluorescence; series mostly up to 76.8 µM
Results filed as inconclusive are left out. Activity calls are given as the source filed them. Calls come from the whole dose curve; as a rule, active = well fitted activation curve with a large enough effect in the repeat runs; inconclusive = weak or mixed curves; inactive = flat fitted curve, though single readings scatter.
measured.metric: cytotoxicity increase

[[record]]
compound = "CCOP(=O)(OCC)OP(=O)(OCC)OCC"
measured_metric = "cytotoxicity increase"
meas_value = "inactive"

[[record]]
compound = "ClCC(Cl)Cl"
measured_metric = "cytotoxicity increase"
meas_value = "inactive"

[[record]]
compound = "Cc1ncc2n1-c1ccc(Cl)cc1C(c1ccccc1F)=NC2"
measured_metric = "cytotoxicity increase"
meas_value = "inactive"

[[record]]
compound = "O=C1CN=C(c2ccccc2)c2cc([N+](=O)[O-])ccc2N1"
measured_metric = "cytotoxicity increase"
meas_value = "inactive"

[[record]]
compound = "Nc1cc2c3c(c1)C(c1ccccc1)=N[C@@H](NC(=O)c1cccnc1)C(=O)N3CC2"
measured_metric = "cytotoxicity increase"
meas_value = "inactive"

[[record]]
compound = "N#Cc1c(Cl)cccc1Cl"
measured_metric = "cytotoxicity increase"
meas_value = "inactive"

[[record]]
compound = "O=[N+]([O-])c1cccc(O)c1"
measured_metric = "cytotoxicity increase"
meas_value = "inactive"

[[record]]
compound = "N#CCBr"
measured_metric = "cytotoxicity increase"
meas_value = "inactive"

[[record]]
compound = "CCOC(=O)N(C)C(=O)CSP(=S)(OCC)OCC"
measured_metric = "cytotoxicity increase"
meas_value = "inactive"

[[record]]
compound = "C#C[C@]1(O)C=C[C@H]2[C@@H]3CCC4=CC(=O)CC[C@@H]4[C@H]3CC[C@@]21CC"
measured_metric = "cytotoxicity increase"
meas_value = "inactive"

[[record]]
compound = "CCOC(=O)NC(=S)Nc1ccccc1NC(=S)NC(=O)OCC"
measured_metric = "cytotoxicity increase"
meas_value = "inactive"

[[record]]
compound = "ClCCOCOCCCl"
measured_metric = "cytotoxicity increase"
meas_value = "inactive"

[[record]]
compound = "ClC(Cl)C(Cl)Cl"
measured_metric = "cytotoxicity increase"
meas_value = "inactive"

[[record]]
compound = "CSc1nc(N=[N+]=[N-])nc(NC(C)C)n1"
measured_metric = "cytotoxicity increase"
meas_value = "inactive"

[[record]]
compound = "[As]#[In]"
measured_metric = "cytotoxicity increase"
meas_value = "inactive"

[[record]]
compound = "NC1=NC(=O)C(c2ccccc2)O1 (stereo not given)"
measured_metric = "cytotoxicity increase"
meas_value = "inactive"

[[record]]
compound = "CNC(=O)Oc1c(C(C)(C)C)cc(C)cc1C(C)(C)C"
measured_metric = "cytotoxicity increase"
meas_value = "inactive"

[[record]]
compound = "Nc1n[nH]c(N)n1"
measured_metric = "cytotoxicity increase"
meas_value = "inactive"

[[record]]
compound = "C=CC1CC=CCC1 (stereo not given)"
measured_metric = "cytotoxicity increase"
meas_value = "inactive"

[[record]]
compound = "CCC(C)(C)c1cc(-n2nc3ccccc3n2)c(O)c(C(C)(C)CC)c1"
measured_metric = "cytotoxicity increase"
meas_value = "inactive"

[[record]]
compound = "O=C(NCO)NCO"
measured_metric = "cytotoxicity increase"
meas_value = "inactive"

[[record]]
compound = "CC1CCCCC1NC(=O)Nc1ccccc1 (stereo not given)"
measured_metric = "cytotoxicity increase"
meas_value = "inactive"

[[record]]
compound = "CC(C)CP(=S)(S)CC(C)C"
measured_metric = "cytotoxicity increase"
meas_value = "inactive"

[[record]]
compound = "CCC(Cl)[N+](=O)[O-] (stereo not given)"
measured_metric = "cytotoxicity increase"
meas_value = "inactive"

[[record]]
compound = "O=C(CCN1CC1)OCC(CO)(COC(=O)CCN1CC1)COC(=O)CCN1CC1"
measured_metric = "cytotoxicity increase"
meas_value = "inactive"

[[record]]
compound = "O=[N+]([O-])c1ccc2c3c(cccc13)CC2"
measured_metric = "cytotoxicity increase"
meas_value = "inactive"

[[record]]
compound = "CCCCC(=O)Cl"
measured_metric = "cytotoxicity increase"
meas_value = "inactive"

[[record]]
compound = "COCC(=O)N(c1c(C)cccc1C)N1CCOC1=O"
measured_metric = "cytotoxicity increase"
meas_value = "inactive"

[[record]]
compound = "CC(COc1ccc(Oc2ccccc2)cc1)Oc1ccccn1 (stereo not given)"
measured_metric = "cytotoxicity increase"
meas_value = "inactive"

[[record]]
compound = "ClC(Cl)(Cl)C(Cl)(Cl)Cl"
measured_metric = "cytotoxicity increase"
meas_value = "inactive"

[[record]]
compound = "CCCCP(CCCC)CCCC"
measured_metric = "cytotoxicity increase"
meas_value = "inactive"

[[record]]
compound = "COC(=O)c1ccccc1S(=O)(=O)NC(=O)Nc1nc(C)cc(C)n1"
measured_metric = "cytotoxicity increase"
meas_value = "inactive"

[[record]]
compound = "CCN(CC)C(C)C(=O)c1ccccc1 (stereo not given)"
measured_metric = "cytotoxicity increase"
meas_value = "inactive"

[[record]]
compound = "CC(C)CC#N"
measured_metric = "cytotoxicity increase"
meas_value = "inactive"

[[record]]
compound = "CCOP(=S)(OCC)SCSP(=S)(OCC)OCC"
measured_metric = "cytotoxicity increase"
meas_value = "inactive"

[[record]]
compound = "CCOc1nc(C(Cl)(Cl)Cl)ns1"
measured_metric = "cytotoxicity increase"
meas_value = "inactive"

[[record]]
compound = "COC(=O)C1=CCCN(C)C1"
measured_metric = "cytotoxicity increase"
meas_value = "inactive"

[[record]]
compound = "CCS(=O)(=O)CCSP(=O)(OC)OC"
measured_metric = "cytotoxicity increase"
meas_value = "inactive"

[[record]]
compound = "CN1C(=S)CN=C(c2ccccc2)c2cc(Cl)ccc21"
measured_metric = "cytotoxicity increase"
meas_value = "inactive"

[[record]]
compound = "CC(N)=S"
measured_metric = "cytotoxicity increase"
meas_value = "inactive"

[[record]]
compound = "Cc1cccc(C#N)c1"
measured_metric = "cytotoxicity increase"
meas_value = "inactive"

[[record]]
compound = "C(CCOCC1CO1)COCC1CO1 (stereo not given)"
measured_metric = "cytotoxicity increase"
meas_value = "inactive"

[[record]]
compound = "C[C@@H]1CN(C2CCC(C#N)(c3ccc(F)cc3)CC2)CC[C@]1(C(=O)O)c1ccccc1 (stereo not given in full)"
measured_metric = "cytotoxicity increase"
meas_value = "inactive"

[[record]]
compound = "O=C(O)c1cccc(Cl)c1"
measured_metric = "cytotoxicity increase"
meas_value = "inactive"

[[record]]
compound = "Cc1ncsc1CCCl"
measured_metric = "cytotoxicity increase"
meas_value = "inactive"

[[record]]
compound = "O=C(Oc1ccc(Br)cc1)N1CCN2CCC1CC2"
measured_metric = "cytotoxicity increase"
meas_value = "inactive"

[[record]]
compound = "CCN(CC)c1nc(C)cc(OP(=S)(OC)OC)n1"
measured_metric = "cytotoxicity increase"
meas_value = "inactive"

[[record]]
compound = "OCCBr"
measured_metric = "cytotoxicity increase"
meas_value = "inactive"

[[record]]
compound = "CC(C)(C)OC(=O)c1ncn2c1[C@@H]1CCCN1C(=O)c1c(Br)cccc1-2"
measured_metric = "cytotoxicity increase"
meas_value = "inactive"

[[record]]
compound = "O=[N+]([O-])c1ccc(CBr)cc1"
measured_metric = "cytotoxicity increase"
meas_value = "inactive"

[[record]]
compound = "CCC#N"
measured_metric = "cytotoxicity increase"
meas_value = "inactive"

[[record]]
compound = "CCCSP(=O)(OCC)Oc1ccc(Br)cc1Cl (stereo not given)"
measured_metric = "cytotoxicity increase"
meas_value = "inactive"

[[record]]
compound = "CC1(C)C(=O)NC(=O)NC1=O"
measured_metric = "cytotoxicity increase"
meas_value = "inactive"

[[record]]
compound = "c1cc2c(c(N3CCNCC3)c1)OCCO2"
measured_metric = "cytotoxicity increase"
meas_value = "inactive"

[[record]]
compound = "CCOC(=O)/C=C(C)/C=C/C[C@@H](C)CCCC(C)C"
measured_metric = "cytotoxicity increase"
meas_value = "inactive"

[[record]]
compound = "CC(C)(C)NCC(O)c1cc(Cl)c(N)c(Cl)c1 (stereo not given)"
measured_metric = "cytotoxicity increase"
meas_value = "inactive"

[[record]]
compound = "Nc1c(Br)cc([N+](=O)[O-])cc1[N+](=O)[O-]"
measured_metric = "cytotoxicity increase"
meas_value = "inactive"

[[record]]
compound = "O=C(Nc1ccccc1)N(Cc1ccc(Cl)cc1)C1CCCC1"
measured_metric = "cytotoxicity increase"
meas_value = "inactive"

[[record]]
compound = "Nc1cc(Cl)ccc1O"
measured_metric = "cytotoxicity increase"
meas_value = "inactive"

[[record]]
compound = "COc1ccc(C(=O)N2CCCC2=O)cc1"
measured_metric = "cytotoxicity increase"
meas_value = "inactive"


---

# procedure.details: qHTS assay to identify small molecule agonists of the estrogen receptor alpha (ER-alpha) signaling pathway in the presence of an antagonist - cell viability counter screen (AID 1259386);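 note: cells exposed to compounds for 22 h at 37 °C before the viability read; nearly all actives have a fitted effect of over 30% in size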
# condition.info: VM7Luc4E2 viability, CellTiter-Fluor fluorescence, 22 h; series mostly up to 92.4 µM
Results filed as inconclusive are left out. The source made the active and inactive calls. Calls come from the whole dose curve; as a rule, active = well fitted cell-killing curve with a large enough effect in the repeat runs; inconclusive = weak or mixed curves, or effect the other way; inactive = no such curve, though single readings can be large or run the other way.
Possible outcomes: yes for active, no for inactive

[[record]]
molecule = "OCCBr"
answer_label = "no"

[[record]]
molecule = "CCOC(=O)N(C)C(=O)CSP(=S)(OCC)OCC"
answer_label = "no"

[[record]]
molecule = "CC(Cl)(Cl)[N+](=O)[O-]"
answer_label = "no"

[[record]]
molecule = "Oc1c(Cl)cccc1Cl"
answer_label = "no"

[[record]]
molecule = "CCC(=O)c1ccccc1"
answer_label = "no"

[[record]]
molecule = "CNCC(=O)c1ccc(O)c(O)c1"
answer_label = "no"

[[record]]
molecule = "COc1cc(C[C@@H](C)N)c(OC)cc1C"
answer_label = "no"

[[record]]
molecule = "CCCCOC(=O)c1ccccc1N"
answer_label = "no"

[[record]]
molecule = "ClC(Cl)Br"
answer_label = "no"

[[record]]
molecule = "CCCSC(=O)N(CCC)CCC"
answer_label = "no"

[[record]]
molecule = "CC(=O)Nc1cc([As](=O)(O)O)ccc1O"
answer_label = "no"

[[record]]
molecule = "CCCCc1ccc(O)cc1"
answer_label = "no"

[[record]]
molecule = "CC(C)CC(N(C)C)C1(c2ccc(Cl)cc2)CCC1 (stereo unspecified)"
answer_label = "no"

[[record]]
molecule = "Cc1cccc(C#N)c1"
answer_label = "no"

[[record]]
molecule = "N#Cc1c(Cl)cccc1Cl"
answer_label = "no"

[[record]]
molecule = "CCOC(=O)NC(=S)Nc1ccccc1NC(=S)NC(=O)OCC"
answer_label = "no"

[[record]]
molecule = "CCOP(=S)(OCC)SCSP(=S)(OCC)OCC"
answer_label = "no"

[[record]]
molecule = "COP(=S)(OC)Oc1c(Cl)cc(C)cc1Cl"
answer_label = "no"

[[record]]
molecule = "ClCC(Cl)(Cl)Cl"
answer_label = "no"

[[record]]
molecule = "CNNC"
answer_label = "no"

[[record]]
molecule = "CC(C)(C)OC(=O)c1ncn2c1[C@@H]1CCCN1C(=O)c1c(Br)cccc1-2"
answer_label = "no"

[[record]]
molecule = "CCCCOP(=O)(O)OCCCC"
answer_label = "no"

[[record]]
molecule = "COc1cccc2c1cc([N+](=O)[O-])c1c(C(=O)O)cc3c(c12)OCO3"
answer_label = "yes"

[[record]]
molecule = "O=C(N[C@H]1CN2CCC1CC2)c1cc2ccoc2cn1"
answer_label = "no"

[[record]]
molecule = "CC1CCC(=O)O1 (stereo unspecified)"
answer_label = "no"

[[record]]
molecule = "COC(=O)C(c1ccccc1)C1CCCCN1 (stereo unspecified)"
answer_label = "no"

[[record]]
molecule = "O=C(CCN1CC1)OCC(CO)(COC(=O)CCN1CC1)COC(=O)CCN1CC1"
answer_label = "no"

[[record]]
molecule = "CC(C)COP(=O)(OCC(C)C)OCC(C)C"
answer_label = "no"

[[record]]
molecule = "COc1cc(OC)nc(NC(=O)NS(=O)(=O)c2ncccc2C(=O)N(C)C)n1"
answer_label = "no"

[[record]]
molecule = "Cc1coc2c1CCC(C)C2 (stereo unspecified)"
answer_label = "no"

[[record]]
molecule = "CC(=O)C(Cl)Cl"
answer_label = "no"

